studyTarget: USP11 DUSP-UBL domain (Homo sapiens)
Construct: USP11_UBL; P51784; UBL; 6xHis-GST (N, cleaved yes); made in house; host or cells: Escherichia coli BL21-Gold (DE3)
Sequence (P51784 67-288): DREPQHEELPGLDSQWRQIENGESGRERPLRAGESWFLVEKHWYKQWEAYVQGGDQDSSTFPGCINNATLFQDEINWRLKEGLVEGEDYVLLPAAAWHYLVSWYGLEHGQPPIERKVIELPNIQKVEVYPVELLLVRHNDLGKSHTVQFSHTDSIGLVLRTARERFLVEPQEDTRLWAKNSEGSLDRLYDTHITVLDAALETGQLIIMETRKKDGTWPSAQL
protocolDetails: FP-based affinity measurements, USP11 DUSP-UBL
Format: binding
measurementContext: competitive FP; technical triplicates; read-out: KD, USP11 DUSP-UBL, unlabeled peptide (competitive binding)
Ends that are not written are not given here.

- residueCodes: "SAVTYPDWIGQSYSEV [ORAI1_48-63]"
  Kd: "> 200 µM"

* * *

studyTarget: USP20 DUSP2 domain (Homo sapiens, UniProt Q9Y2K6)
Construct: USP20_DUSP2; Q9Y2K6; DUSP2; 776; 894; 6xHis-GST (N, cleaved yes); made in house; host or cells: Escherichia coli BL21-Gold (DE3)
Sequence (Q9Y2K6 with tags, fused parts or gaps): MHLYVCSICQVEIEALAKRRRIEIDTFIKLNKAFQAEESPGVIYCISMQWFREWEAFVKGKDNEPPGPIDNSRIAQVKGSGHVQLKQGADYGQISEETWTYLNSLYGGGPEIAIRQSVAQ
protocolDetails: FP-monitored affinity measurements, USP20 DUSP2
Assay type: binding
measurementContext: competitive FP: unlabeled peptide (N-acetylated, C-amidated) against protein with 10 nM FITC-labeled peptide; 50 mM phosphate pH 7.4, room temperature; technical triplicate; read-out: KD, USP20 DUSP2
Procedure: Proteins were expressed in Escherichia coli (E.coli) BL21-Gold (DE3) bacteria. […] For fluorescence polarization experiments, the proteins were not eluted from the beads, and the 6xHis-GST tag was cleaved overnight on GSH Sepharose beads at 4 °C while shaking with PreScission Protease in cleavage buffer (50 mM Tris pH 7.5, 150 mM NaCl, 1 mM DTT). […] The purity and size of the proteins were analyzed by SDS-PAGE electrophoresis. […]
pKd: −log10 of the molar value. Ends that are not written are not given here.
quantityMeasured: pKd

- residueCodes: "PYIPMDGEDFQLSPICPE [HIF2A531-548]"
  studyTarget: "USP20 DUSP2 domain (Homo sapiens, UniProt Q9Y2K6)"
  quantityMeasured: "pKd"
  result: "< 3.70"

* * *

studyTarget: USP11 DUSP-UBL domain (Homo sapiens)
Construct: USP11_UBL; P51784; UBL; 6xHis-GST (N, cleaved yes); made in house; host or cells: Escherichia coli BL21-Gold (DE3)
protocolDetails: FP-based affinity measurements, USP11 DUSP-UBL
Format: binding
measurementContext: USP11_DUSP_UBL; FP displacement of the FITC-labelled peptide by unlabelled peptide; read-out: KD
pKd: −log10 of the molar value.
quantityMeasured: pKd

- substance: "Ac-SAVTYPDWIGQSYSEV-NH2 [ORAI1_USP11]"
  quantityMeasured: "pKd"
  result: "~3.68"

* * *

studyTarget: USP33 zf-UBP domain (Homo sapiens)
Construct: USP33_UBP; Q8TEY7; zf-UBP; 36; 130; 6xHis-GST (N, cleaved yes); made in house; host or cells: Escherichia coli BL21-Gold (DE3)
Sequence (Q8TEY7 with tags, fused parts or gaps): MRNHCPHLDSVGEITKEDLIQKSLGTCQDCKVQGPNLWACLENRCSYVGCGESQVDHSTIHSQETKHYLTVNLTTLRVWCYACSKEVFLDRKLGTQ
protocolDetails: FP-monitored affinity measurements, USP33 zf-UBP
Type: binding
measurementContext: read-out: KD, USP33 zf-UBP
pKd: −log10 of the molar value. Ends that are not written are not given here.
quantityMeasured: pKd

- residueCodes: "EKVKRRLDLDID [CCP110_582-593]"
  studyTarget: "USP33 zf-UBP domain (Homo sapiens)"
  result: "< 3.60"

* * *

Each entry below carries its reported pKd.
studyTarget: USP20 DUSP2 domain (Homo sapiens, UniProt Q9Y2K6)
Construct: USP20_DUSP2; Q9Y2K6; DUSP2; 776; 894; 6xHis-GST (N, cleaved yes); made in house; host or cells: Escherichia coli BL21-Gold (DE3)
protocolDetails: FP-monitored affinity measurements, USP20 DUSP2
Assay type: binding
measurementContext: USP20_DUSP2; FP displacement by unlabelled peptide; read-out: KD
pKd: −log10 of the molar value.

- substance: "PDVVDDFQLQHRHGPG [MFSD2B]"
  pKd: 4.35
- substance: "Ac-SDDDLAWNIAPQGLQ-NH2 [GPR137B348-362]"
  pKd: 4.99
- substance: "IPMDDDFQLRSFDQLS [HIF1A]"
  pKd: 4.73
- substance: "QLEEELFQLRQGPAGL [CCDC88B]"
  pKd: 4.65
- substance: "Ac-PYIPMDDKFQLRSFDQLS-NH2 [HIF1A_D571K]"
  pKd: 4.07
- substance: "Ac-PYIPMDKDFQLRSFDQLS-NH2 [HIF1A_D570K]"
  pKd: 4.73
- substance: "Ac-PYIPMDDDFQARSFDQLS-NH2 [HIF1A_L574A]"
  pKd: 4.05

* * *

studyTarget: USP33 DUSP2 domain (Homo sapiens, UniProt Q8TEY7)
Construct: USP33_DUSP2; Q8TEY7; DUSP2; 806; 921; 6xHis-GST (N, cleaved yes); made in house; host or cells: Escherichia coli BL21-Gold (DE3)
Sequence (Q8TEY7 with tags, fused parts or gaps): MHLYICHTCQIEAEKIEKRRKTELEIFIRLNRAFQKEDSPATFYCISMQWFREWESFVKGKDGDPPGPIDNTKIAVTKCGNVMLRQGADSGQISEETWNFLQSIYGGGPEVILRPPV
protocolDetails: Peptide SPOT array, USP33 DUSP2
Type: binding
measurementContext: average normalised to the highest intensity (CCDC88B = 100)

- residueCodes: "KEQLSSFDISPREKLI [ARNTL2]"
  studyTarget: "USP33 DUSP2 domain (Homo sapiens, UniProt Q8TEY7)"
  Normalize to higher intensity (%): 36.7483
- residueCodes: "GGLTDLSSLIQAGQQF [SGTB]"
  studyTarget: "USP33 DUSP2 domain (Homo sapiens, UniProt Q8TEY7)"
  Normalize to higher intensity (%): 19.7113
- residueCodes: "IPMDDDFQLRSFDQLS [HIF1A]"
  studyTarget: "USP33 DUSP2 domain (Homo sapiens, UniProt Q8TEY7)"
  Normalize to higher intensity (%): 69.9644
- residueCodes: "VKHPRFFALFEKHGGY [PPIP5K1]"
  studyTarget: "USP33 DUSP2 domain (Homo sapiens, UniProt Q8TEY7)"
  Normalize to higher intensity (%): -36.2833

* * *

studyTarget: USP33 DUSP2 domain (Homo sapiens, UniProt Q8TEY7)
Construct: USP33_DUSP2; Q8TEY7; DUSP2; 806; 921; 6xHis-GST (N, cleaved yes); made in house; host or cells: Escherichia coli BL21-Gold (DE3)
protocolDetails: Peptide SPOT array, USP33 DUSP2
Assay type: binding
measurementContext: average normalised to the highest intensity (CCDC88B = 100)
quantityMeasured: Normalize to higher intensity (%)

- substance: "KGHSRDFVLRRDLSAT [ZIC5]"
  quantityMeasured: "Normalize to higher intensity (%)"
  quantitativeResult: 49.982
- substance: "EKEDSCFELLHRAVGH [ASB8]"
  quantityMeasured: "Normalize to higher intensity (%)"
  quantitativeResult: 10.516
- substance: "MNFNVWNIKEMLSIPS [IHO1]"
  quantityMeasured: "Normalize to higher intensity (%)"
  quantitativeResult: -0.2743
- substance: "EAGLALRTDLQGEAQI [ZNF783]"
  quantityMeasured: "Normalize to higher intensity (%)"
  quantitativeResult: 68.6966
- substance: "QPIDNSFDIQSRDCIS [MAP3K4]"
  quantityMeasured: "Normalize to higher intensity (%)"
  quantitativeResult: 25.9612
- substance: "PDVVDDFQLQHRHGPG [MFSD2B]"
  quantityMeasured: "Normalize to higher intensity (%)"
  quantitativeResult: 51.523
- substance: "ATLATAWSLVEAAGLD [BAHCC1_2]"
  quantityMeasured: "Normalize to higher intensity (%)"
  quantitativeResult: -24.9243
- substance: "KMGSDEFDISPRISKQ [MGA]"
  quantityMeasured: "Normalize to higher intensity (%)"
  quantitativeResult: 61.0297
- substance: "EEDVLAFNLQHLATLA [BAHCC1_1]"
  quantityMeasured: "Normalize to higher intensity (%)"
  quantitativeResult: 29.5039
- substance: "QLEEELFQLRQGPAGL [CCDC88B]"
  quantityMeasured: "Normalize to higher intensity (%)"
  quantitativeResult: 100
- substance: "NGLDIAPRYFGFIKAC [SLC17A1]"
  quantityMeasured: "Normalize to higher intensity (%)"
  quantitativeResult: 22.3834
- substance: "LRHPSGWWLVENEDRQ [NOXO1]"
  quantityMeasured: "Normalize to higher intensity (%)"
  quantitativeResult: 27.858
- substance: "EGTEVAFPLLVSHRSQ [EMSY]"
  quantityMeasured: "Normalize to higher intensity (%)"
  quantitativeResult: 1.956
- substance: "RLQKDIWDIQMRSKSL [GBP2]"
  quantityMeasured: "Normalize to higher intensity (%)"
  quantitativeResult: 42.7122
- substance: "Ac-SDDDLAWNIAPQGLQ-NH2 [GPR137B348-362]"
  quantityMeasured: "Normalize to higher intensity (%)"
  quantitativeResult: -9.797

* * *

studyTarget: USP20 DUSP2 domain (Homo sapiens, UniProt Q9Y2K6)
Construct: USP20_DUSP2; Q9Y2K6; DUSP2; 776; 894; 6xHis-GST (N, cleaved yes); made in house; host or cells: Escherichia coli BL21-Gold (DE3)
protocolDetails: Peptide SPOT array, USP20 DUSP2;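 further: GST-tagged domain probed overnight at 4 °C on peptides made on cellulose membranes, bound protein detected via HRP-coupled anti-GST antibody, spot intensity from image analysis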
Format: binding
measurementContext: peptide SPOT array, sheet S5A, average normalized to the peptide with highest intensity (ARNTL2 = 100)
quantityMeasured: Normalize to peptide with higher intensity % (%)

- residueCodes: "VKHPRFFALFEKHGGY [PPIP5K1]"
  studyTarget: "USP20 DUSP2 domain (Homo sapiens, UniProt Q9Y2K6)"
  quantitativeResult: -15.9022
- residueCodes: "EAGLALRTDLQGEAQI [ZNF783]"
  studyTarget: "USP20 DUSP2 domain (Homo sapiens, UniProt Q9Y2K6)"
  quantitativeResult: -9.211
- residueCodes: "QLEEELFQLRQGPAGL [CCDC88B]"
  studyTarget: "USP20 DUSP2 domain (Homo sapiens, UniProt Q9Y2K6)"
  quantitativeResult: 34.9541
- residueCodes: "IPMDDDFQLRSFDQLS [HIF1A]"
  studyTarget: "USP20 DUSP2 domain (Homo sapiens, UniProt Q9Y2K6)"
  quantitativeResult: 19.8322
